experimental-target: human A2b adenosine receptor (Homo sapiens (Human), UniProt P29275)
Sequence (P29275 whole entry): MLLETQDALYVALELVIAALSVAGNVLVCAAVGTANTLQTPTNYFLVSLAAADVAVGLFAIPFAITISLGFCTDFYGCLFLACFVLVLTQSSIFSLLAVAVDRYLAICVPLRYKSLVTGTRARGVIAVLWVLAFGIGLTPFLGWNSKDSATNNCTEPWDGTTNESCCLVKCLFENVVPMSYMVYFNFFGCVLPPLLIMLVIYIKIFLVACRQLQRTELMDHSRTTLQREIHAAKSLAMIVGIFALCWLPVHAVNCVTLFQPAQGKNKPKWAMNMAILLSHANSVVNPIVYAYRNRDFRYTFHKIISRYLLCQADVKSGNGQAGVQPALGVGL
assay-name: A2b radioligand filtration binding assay (tritiated proprietary A2b antagonist, HEK293 membranes)
experimental-parameters: unstarred values: radioligand binding
quantity-kind: IC50 (nM)
Respond numerically; units are nM and should not be typed.

COc1cccc2c1nc(N)n1nc([C@@H]3CCCN(c4cnn(C5CCC5O)c4)C3)nc21 (single isomer, unassigned) [Example 60A]; 281
COc1ccc2c(c1)nc(N)n1nc([C@@H]3CC[C@H](C)N(c4cnn(CC(C)(C)O)c4)C3)nc21 [Example 204]; 1.1
COc1cccc2c1nc(N)n1nc([C@@H]3CCCN(c4cn[nH]c4)C3)nc21 [Example 55]; 4.7

Turning now to a further molecule:
[ask] I would be grateful if you could share the reported IC50 for COc1cccc2c1nc(N)n1nc([C@@H]3CCCN(c4cnn(C5(C)CC5)c4)C3)nc21 [Example 20] .
[reply] 45.1

====

experimental-target: human A2b adenosine receptor (Homo sapiens (Human), UniProt P29275)
assay-name: A2B antagonism in cAMP cell-based assay (LANCE cAMP, HEK293 cells, 600 nM adenosine)
experimental-parameters: values marked *: cAMP cell-based assay
quantity-kind: log10(IC50) (log10 of the value in nM)
Lab note - IC50 converted to log10 from values in nM.

Cn1cc(N2CCCC(c3nc4c5cccc(F)c5nc(N)n4n3)C2)cn1 (single isomer, unassigned) [Example 131A]; 3.23
COc1ccc2c(c1)nc(N)n1nc([C@@H]3CCCN(c4cnn([C@@H](C)[C@H](C)O)c4)C3)nc21 [Example 220A]; 1.82
COc1cccc2c1nc(N)n1nc([C@@H]3CCCN(c4cc(C(F)(F)F)n(C)n4)C3)nc21; 3.40
Nc1nc2c(OC(F)F)cccc2c2nc([C@@H]3CCCN(c4cnn(C5CC5)c4)C3)nn12; 3.11
COc1cccc2c1nc(N)n1nc(C3CCC(C)N(c4cnn(C(C)(C)CO)c4)C3)nc21 (single isomer, unassigned) [Example 146C]; 3.34

[ask] Lab request: please report log10(IC50) under test system human A2b adenosine receptor (Homo sapiens (Human), UniProt P29275) for COc1cccc2c1nc(N)n1nc([C@@H]3CCCN(c4nnn(C)c4C)C3)nc21
[reply] 2.16

[ask] Now try COc1cccc2c1nc(N)n1nc([C@@H]3CCCN(c4cnn(C5CC6(COC6)C5)c4)C3)nc21 .
[reply] 3.23

====

experimental-target: human A2a adenosine receptor (Homo sapiens (Human))
Sequence (P29274 whole entry): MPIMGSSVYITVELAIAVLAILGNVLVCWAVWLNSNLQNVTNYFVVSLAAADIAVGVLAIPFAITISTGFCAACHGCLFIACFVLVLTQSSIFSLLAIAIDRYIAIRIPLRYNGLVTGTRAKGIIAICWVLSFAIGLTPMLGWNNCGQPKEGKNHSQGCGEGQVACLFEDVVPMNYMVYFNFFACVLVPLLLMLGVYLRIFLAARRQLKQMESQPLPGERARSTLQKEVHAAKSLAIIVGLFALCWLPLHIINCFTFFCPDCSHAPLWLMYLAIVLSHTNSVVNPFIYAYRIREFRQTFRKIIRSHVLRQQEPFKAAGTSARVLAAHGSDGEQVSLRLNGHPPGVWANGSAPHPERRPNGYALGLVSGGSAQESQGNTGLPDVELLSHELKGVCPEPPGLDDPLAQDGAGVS
assay-name: A2a receptor affinity radioligand binding assay ([3H] SCH58261, membranes from HEK293 or CHO cells)
experimental-parameters: unstarred values: radioligand binding
The reader will find reported pIC50 values listed item by item below.
// pIC50 is dimensionless: -log10 of concentration (M)

Consider the following illustrative entries.
COc1cccc2c1nc(N)n1nc([C@@H]3CCCN(c4cncn4C)C3)nc21 [Example 86]; 8.68
COc1cccc2c1nc(N)n1nc([C@@H]3CCCN(c4cnc(C5CC5)cn4)C3)nc21 [Example 105]; 9.15
COc1cccc2c1nc(N)n1nc([C@@H]3CCCN(c4cncc(F)c4)C3)nc21 [Example 113]; 9.22
COc1cccc2c1nc(N)n1nc([C@@H]3CCCN(c4cnn(C5CC5)c4)C3)nc21 [Example 7]; 8.85
COc1cccc2c1nc(N)n1nc([C@@H]3CCCN(c4ccccn4)C3)nc21 [Example 119]; 8.92
COc1cccc2c1nc(N)n1nc([C@@H]3CCN(c4cnn(C5CC5)c4)C3)nc21 [Example 161]; 7.88

[ask] Lab request: please report pIC50 under test system human A2a adenosine receptor (Homo sapiens (Human)) for COc1ccc2c(c1)nc(N)n1nc([C@H]3C[C@H](C)CN(c4cnn(CC(C)(C)O)c4)C3)nc21 [Example 195C]
[reply] 6.55

[ask] Now try COc1cccc2c1nc(N)n1nc([C@@H]3CCCN(c4cnn(C5(C)CC5)c4)C3)nc21 [Example 20] .
[reply] 9.30

====

The reader will find reported log10 of IC50 values listed item by item below.
experimental-target: human A2b adenosine receptor (Homo sapiens (Human), UniProt P29275)
assay-name: A2B antagonism in cAMP cell-based assay (LANCE cAMP, HEK293 cells, 600 nM adenosine)
experimental-parameters: values marked *: cAMP cell-based assay
Lab note - IC50 converted to log10 from values in nM.

Consider the following illustrative entries.
COc1cccc2c1nc(N)n1nc(C3CCC(C)N(c4cnn(C5CC5)c4)C3)nc21 (single isomer, unassigned) [Example 141A]; 2.85
COc1ccc2c(c1)nc(N)n1nc([C@@H]3CC[C@H](C)N(c4cnn(C(C)(C)CO)c4)C3)nc21 [Example 214]; 0.45
COc1cccc2c1nc(N)n1nc([C@@H]3CCCN(c4cccc(C(F)(F)F)c4)C3)nc21 [Example 114]; 2.57

[ask] I would be grateful if you could share the reported log10 of IC50 for COc1cccc2c1nc(N)n1nc(C3CN(c4cnn(C5CC5)c4)CC(F)(F)C3)nc21 (single isomer, unassigned) [Example 154A] .
[reply] 2.59

====

experimental-target: human A2b adenosine receptor (Homo sapiens (Human), UniProt P29275)
assay-name: A2b radioligand filtration binding assay (tritiated proprietary A2b antagonist, HEK293 membranes)
experimental-parameters: unstarred values: radioligand binding
pIC50: −log10 of the molar value.
Label label 1 when pIC50 is at or above 7; otherwise label label 0.

[ask] Assess whether reported pIC50 for COc1ccc2c(c1)nc(N)n1nc([C@@H]3CCCN(c4cnn(C(C)(C)CO)c4)C3)nc21 sits at 7 or higher.
[reply] label 1

====

experimental-target: human A2b adenosine receptor (Homo sapiens (Human), UniProt P29275)
assay-name: A2b radioligand filtration binding assay (tritiated proprietary A2b antagonist, HEK293 membranes)
experimental-parameters: unstarred values: radioligand binding
The reader will find reported pIC50 values listed item by item below.
// pIC50 is dimensionless: -log10 of concentration (M)

[ask] I would be grateful if you could share the reported pIC50 for COc1cccc2c1nc(N)n1nc([C@@H]3CCCN(c4cn(C5CCOCC5)nc4C)C3)nc21 .
[reply] 6.39

[ask] Now try COc1cccc2c1nc(N)n1nc([C@@H]3CCCN(c4cn(CC5(O)CCC5)nc4C)C3)nc21 .
[reply] 9.15

[ask] Now try COc1cccc2c1nc(N)n1nc([C@@H]3CCCN(c4ccn(C)n4)C3)nc21 .
[reply] 6.84

[ask] Now try COc1cccc2c1nc(N)n1nc([C@@H]3CCC[C@H](c4cnn(CC(C)(C)O)c4)C3)nc21 (single isomer, unassigned) .
[reply] 5.06

[ask] Now try COc1ccc2c(c1)nc(N)n1nc([C@@H]3CCCN(c4cnn(CC5(O)CCC5)c4)C3)nc21 .
[reply] 6.72

[ask] Now try COc1cccc2c1nc(N)n1nc([C@@H]3CCCN(c4cn(C5CCOCC5)nc4C(F)F)C3)nc21 .
[reply] 7.18

[ask] Now try COc1cccc2c1nc(N)n1nc([C@H]3CCO[C@@H](c4cnn(C)c4)C3)nc21 [Example 139A] .
[reply] 5.61

====

The reader will find reported pIC50 values listed item by item below.
experimental-target: human A2b adenosine receptor (Homo sapiens (Human), UniProt P29275)
assay-name: A2b radioligand filtration binding assay (tritiated proprietary A2b antagonist, HEK293 membranes)
experimental-parameters: unstarred values: radioligand binding
// pIC50 is dimensionless: -log10 of concentration (M)

Consider the following illustrative entries.
COc1cccc2c1nc(N)n1nc(C3CCC(C)N(c4cnn(CC(C)(C)O)c4)C3)nc21 (single isomer, unassigned) [Example 143D]; 7.79
COc1cccc2c1nc(N)n1nc([C@@H]3CCCN(c4nccnc4C)C3)nc21 [Example 101]; 6.75
COc1cccc2c1nc(N)n1nc([C@@H]3CCCN(c4ncn(C5CCOCC5)n4)C3)nc21 [Example 68]; 6.47
CNC(=O)C(C)(C)n1cc(N2CCC[C@@H](c3nc4c5cccc(OC)c5nc(N)n4n3)C2)cn1 [Example 26]; 8.70
COc1cccc2c1nc(N)n1nc([C@@H]3CCCN(c4cnn(CC5(O)CCCCC5)c4)C3)nc21 [Example 44]; 6.88
Cn1cc(N2CCCC(c3nc4c5ccc(F)cc5nc(N)n4n3)C2)cn1 (single isomer, unassigned) [Example 168]; 6.82
COc1cccc2c1nc(N)n1nc([C@@H]3CCCN(c4ccc(F)cn4)C3)nc21 [Example 115]; 7.23
COc1cccc2c1nc(N)n1nc([C@@H]3CCCN(c4cnn(C5CCC5O)c4)C3)nc21 (single isomer, unassigned) [Example 60B]; 6.74
COc1cccc2c1nc(N)n1nc(C3CCC(C)N(c4cnn(C(C)(C)CO)c4)C3)nc21 (single isomer, unassigned) [Example 146D]; 8.34
COc1cccc2c1nc(N)n1nc([C@@H]3CCCN(c4cnn(C(C)C(C)(C)O)c4)C3)nc21 (single isomer, unassigned) [Example 61A]; 7.34

[ask] I would be grateful if you could share the reported pIC50 for COc1cccc2c1nc(N)n1nc([C@@H]3CCCN(c4cnn(C(C)(C)CO)c4)C3)nc21 [Example 54] .
[reply] 7.79

[ask] Now try COc1cccc2c1nc(N)n1nc([C@@H]3CCCN(c4cncc(C)n4)C3)nc21 [Example 103] .
[reply] 6.80

[ask] Now try COc1cccc2c1nc(N)n1nc([C@@H]3CCCN(c4cnn(C5CCOC5)c4)C3)nc21 (single isomer, unassigned) [Example 57B] .
[reply] 7.05

[ask] Now try COc1cccc2c1nc(N)n1nc([C@@H]3CCCN(c4cncc(C(F)(F)F)n4)C3)nc21 [Example 104] .
[reply] 5.48
